molecular target: C. elegans (N2) complex I (NADH:ubiquinone oxidoreductase) (Caenorhabditis elegans, UniProt P24887+Q93873+Q94360); assay: biochemical; type: biochemical; settings: Dose 37.5 µM; read-out: C. elegans mitochondrial complex I activity
Sequence (Q94360 17-199): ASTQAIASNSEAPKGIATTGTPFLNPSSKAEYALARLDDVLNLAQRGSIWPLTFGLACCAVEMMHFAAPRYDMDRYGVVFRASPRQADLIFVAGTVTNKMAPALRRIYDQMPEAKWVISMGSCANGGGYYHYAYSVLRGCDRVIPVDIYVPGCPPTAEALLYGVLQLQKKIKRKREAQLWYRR
Sequence (P24887 whole entry): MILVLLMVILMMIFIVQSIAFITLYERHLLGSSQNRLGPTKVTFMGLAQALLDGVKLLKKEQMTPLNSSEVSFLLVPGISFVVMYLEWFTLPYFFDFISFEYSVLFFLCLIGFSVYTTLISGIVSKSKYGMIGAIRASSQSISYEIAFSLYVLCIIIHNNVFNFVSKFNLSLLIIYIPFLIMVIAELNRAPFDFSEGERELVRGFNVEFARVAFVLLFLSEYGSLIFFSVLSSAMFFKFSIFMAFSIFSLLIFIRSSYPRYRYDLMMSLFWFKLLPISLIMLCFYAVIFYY
Sequence (Q93873 31-482): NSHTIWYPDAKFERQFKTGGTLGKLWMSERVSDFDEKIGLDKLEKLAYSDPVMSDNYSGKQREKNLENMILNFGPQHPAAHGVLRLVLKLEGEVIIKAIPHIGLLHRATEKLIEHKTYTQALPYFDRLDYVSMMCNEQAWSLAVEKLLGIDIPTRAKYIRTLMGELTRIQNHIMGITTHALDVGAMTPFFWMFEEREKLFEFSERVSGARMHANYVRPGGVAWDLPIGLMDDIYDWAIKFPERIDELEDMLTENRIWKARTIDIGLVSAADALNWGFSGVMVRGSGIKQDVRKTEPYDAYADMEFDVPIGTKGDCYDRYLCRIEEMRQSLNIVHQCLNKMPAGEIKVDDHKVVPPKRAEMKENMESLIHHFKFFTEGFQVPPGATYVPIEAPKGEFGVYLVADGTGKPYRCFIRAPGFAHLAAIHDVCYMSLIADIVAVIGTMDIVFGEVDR
Reported values of activity at 37.5 µM for individual entries
Quick note: give the figure in %, leave out the unit.

Example entries begin here.
[
  {
    "COMPOUND": "Nc1nc2ccccc2n1CCOc1ccc(Br)cc1 [Compound 5842535]",
    "activity at 37.5 µM, %": 0.13
  },
  {
    "COMPOUND": "Cc1ccc(OCCn2cnc3ccccc32)cc1 [Compound 5671538]",
    "activity at 37.5 µM, %": 23.9
  },
  {
    "COMPOUND": "Cc1ccc(OCCn2cnc3ccccc32)c(C)c1 [Compound 7706808]",
    "activity at 37.5 µM, %": 13.2
  }
]

Shifting focus to the compound that follows.
[Q] Sample FC(F)(F)c1cccc(OCCCCn2cnc3ccccc32)c1 [Compound 7925004] — what was its activity at 37.5 µM?
[A] 13.1
